# System: 817829-284-R-J1-PDC complex spheroid viability
# protocol.text: Anticancer human tumor 817829-284-R-J1-PDC patient-derived colon adenocarcinoma cell line growth inhibition [POLQ]
# experimental.setup: second compound 0.316 µM; first compound 3.16 µM; stronger effect = lower value
Provide the reported viability, T/C of each item.
Give bare numbers, in %.

Known results for compounds:
# compound, study.system, viability, T/C (%)
rows = [
    ("COc1cccc2c1C(=O)c1c(O)c3c(c(O)c1C2=O)CC(O)(C(=O)CO)CC3OC1CC(N)C(O)C(C)O1 (stereo not drawn) + Cc1cccc(N(C)C(=O)C2C(O)CCN2c2nc(C)cc(C(F)(F)F)c2C#N)c1", "817829-284-R-J1-PDC complex spheroid viability", 0.19),
    ("CCc1cc2c(N3CCc4c(cc(Cn5ccnc5)cc4-c4cn(C)nc4C(F)(F)F)C3=O)cc(C)nc2c(OC)n1 + COC1C(OC(N)=O)C(O)C(Oc2ccc3c(O)c(NC(=O)c4ccc(O)c(CC=C(C)C)c4)c(=O)oc3c2C)OC1(C)C", "817829-284-R-J1-PDC complex spheroid viability", 41.7),
]

// moving on: another record for viability, T/C
Form field viability, T/C, entry COc1ccc([C@@H](O)c2cc(-c3ncnc4cc(N5CCOCC5)ccc34)c(F)cc2Cl)nn1 + Cc1cccc(N(C)C(=O)C2C(O)CCN2c2nc(C)cc(C(F)(F)F)c2C#N)c1 : 28.3

----------
# System: 817829-284-R-J1-PDC complex spheroid viability
# protocol.text: Anticancer human tumor 817829-284-R-J1-PDC cell line growth inhibition [POLQ];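 note: spheroids exposed to compounds for 7 days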
# experimental.setup: curve of first compound; second compound 0.1 µM
reported.property: pIC50
One number for each entry, as −log10 of the molar value.

# compound, reading
rows = [
    ("COc1cccc(OCCCN)c1-c1cc(Nc2cnc(C#N)cn2)n[nH]1 + Cc1cccc(N(C)C(=O)C2C(O)CCN2c2nc(C)cc(C(F)(F)F)c2C#N)c1", 8.25),
]

// moving on: another record for pIC50
Form field pIC50, entry CC1COCCN1c1cc(C2(S(C)(=N)=O)CC2)nc(-c2ccnc3[nH]ccc23)n1 (stereo not drawn) + Nc1ccc(C#CCN(C(=O)Cc2ncc(C(F)(F)F)cc2C(F)(F)F)c2ccc(F)cc2)nn1 : 6.36

----------
# Tested on: 817829-284-R-J1-PDC complex spheroid viability
# protocol.text: Anticancer human tumor 817829-284-R-J1-PDC cell line growth inhibition [POLQ]; active = viability on the fitted dose curve at most 10% of control; inactive = the rest;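 note: spheroids exposed to compounds for 7 days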
# experimental.setup: second compound 10 µM; first compound 1 µM
Choose one outcome from this list and give only that: y (active), n (inactive)

# molecule, study.system, category.label
measured = [
    ("C#Cc1c(F)ccc2cc(O)cc(-c3ncc4c(N5CC6CCC(C5)N6)nc(OCC56CCCN5CC(F)C6)nc4c3F)c12 (stereo not given) + COC1C(OC(N)=O)C(O)C(Oc2ccc3c(O)c(NC(=O)c4ccc(O)c(CC=C(C)C)c4)c(=O)oc3c2C)OC1(C)C", "817829-284-R-J1-PDC complex spheroid viability", "n"),
    ("COc1cc2cc(C(=O)CCC(=O)O)sc2cc1OC + COC1C(OC(N)=O)C(O)C(Oc2ccc3c(O)c(NC(=O)c4ccc(O)c(CC=C(C)C)c4)c(=O)oc3c2C)OC1(C)C", "817829-284-R-J1-PDC complex spheroid viability", "n"),
    ("COc1cccc2c1C(=O)c1c(O)c3c(c(O)c1C2=O)CC(O)(C(=O)CO)CC3OC1CC(N)C(O)C(C)O1 (stereo not given) + Cc1cccc(N(C)C(=O)C2C(O)CCN2c2nc(C)cc(C(F)(F)F)c2C#N)c1", "817829-284-R-J1-PDC complex spheroid viability", "y"),
    ("O=C(c1cc(Cc2n[nH]c(=O)c3ccccc23)ccc1F)N1CCN(C(=O)C2CC2)CC1 + Cc1cccc(N(C)C(=O)C2C(O)CCN2c2nc(C)cc(C(F)(F)F)c2C#N)c1", "817829-284-R-J1-PDC complex spheroid viability", "n"),
    ("COc1cc(C2c3cc4c(cc3C(OC3OC5COC(C)OC5C(O)C3O)C3COC(=O)C23)OCO4)cc(OC)c1O (stereo not given) + Nc1ccc(C#CCN(C(=O)Cc2ncc(C(F)(F)F)cc2C(F)(F)F)c2ccc(F)cc2)nn1", "817829-284-R-J1-PDC complex spheroid viability", "n"),
]

State the result this test recorded for CCCS(=O)(=O)Nc1ccc(F)c(C(=O)c2c[nH]c3ncc(-c4ccc(Cl)cc4)cc23)c1F + COC1C(OC(N)=O)C(O)C(Oc2ccc3c(O)c(NC(=O)c4ccc(O)c(CC=C(C)C)c4)c(=O)oc3c2C)OC1(C)C .
n

State the result this test recorded for COc1ccc([C@@H](O)c2cc(-c3ncnc4cc(N5CCOCC5)ccc34)c(F)cc2Cl)nn1 + Cc1cccc(N(C)C(=O)C2C(O)CCN2c2nc(C)cc(C(F)(F)F)c2C#N)c1 .
n

State the result this test recorded for CCc1cc2c(N3CCc4c(cc(Cn5ccnc5)cc4-c4cn(C)nc4C(F)(F)F)C3=O)ccnc2c(OC)n1 + Cc1cccc(N(C)C(=O)C2C(O)CCN2c2nc(C)cc(C(F)(F)F)c2C#N)c1 .
n

State the result this test recorded for COc1cccc(OCCCN)c1-c1cc(Nc2cnc(C#N)cn2)n[nH]1 + Cc1cccc(N(C)C(=O)C2C(O)CCN2c2nc(C)cc(C(F)(F)F)c2C#N)c1 .
y

State the result this test recorded for CC1COCCN1c1cc(C2(S(C)(=N)=O)CC2)nc(-c2ccnc3[nH]ccc23)n1 (stereo not given) + Cc1cccc(N(C)C(=O)C2C(O)CCN2c2nc(C)cc(C(F)(F)F)c2C#N)c1 .
n
